Quick reference: MIC of the listed items.
# Tested on: Pseudomonas aeruginosa
# PROTOCOL_NOTES: Antibacterial activity against Pseudomonas aeruginosa 19-5 assessed as inhibition of bacterial growth measured after 18 to 20 hrs by broth microdilution method
# Assay type: functional
# PARTICULARS: time 18-20 hrs
MEASURED_ATTRIBUTE: MIC (µg/mL)

• CCSSCc1ccc(-c2ncc(C(=O)N[C@@H](CCN)C(=O)N(C)[C@@H]3C(=O)N[C@@H](C)C(=O)N[C@H](C(=O)NCC#N)Cc4ccc(OCCN)c(c4)-c4cc3ccc4OCCN)c(C)n2)cc1.O=C(O)C(F)(F)F.O=C(O)C(F)(F)F.O=C(O)C(F)(F)F.O=C(O)C(F)(F)F = 16
• CSSC(C)(C)c1ccc(-c2ncc(C(=O)N[C@@H](CCN)C(=O)N(C)[C@@H]3C(=O)N[C@@H](C)C(=O)N[C@H](C(=O)NCC#N)Cc4ccc(OCCN)c(c4)-c4cc3ccc4OCCN)c(C)n2)cc1.O=C(O)C(F)(F)F.O=C(O)C(F)(F)F.O=C(O)C(F)(F)F.O=C(O)C(F)(F)F = 8
